FYI, the data here is from paper PMC5626031.

- testedOn: adenylylated MtbGS (Mycobacterium tuberculosis, UniProt P9WN39)
- Construct: made in house; host or cells: E. coli YMC11E(DE3) with pTBSK and pTBglnE
- Sequence (P9WN39 2-478 limits assumed): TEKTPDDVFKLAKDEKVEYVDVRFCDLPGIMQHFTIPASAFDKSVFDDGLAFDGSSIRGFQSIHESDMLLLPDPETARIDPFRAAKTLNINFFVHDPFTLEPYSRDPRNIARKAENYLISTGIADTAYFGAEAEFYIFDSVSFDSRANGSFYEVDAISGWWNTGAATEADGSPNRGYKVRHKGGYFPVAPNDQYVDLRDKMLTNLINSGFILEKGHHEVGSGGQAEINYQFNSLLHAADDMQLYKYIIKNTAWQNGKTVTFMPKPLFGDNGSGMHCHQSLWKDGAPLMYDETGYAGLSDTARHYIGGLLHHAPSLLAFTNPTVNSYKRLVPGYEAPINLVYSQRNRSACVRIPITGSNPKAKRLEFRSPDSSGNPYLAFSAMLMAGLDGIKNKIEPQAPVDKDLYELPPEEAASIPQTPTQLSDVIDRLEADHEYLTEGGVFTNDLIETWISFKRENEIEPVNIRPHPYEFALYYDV
- assayProcedure: biochemical
- Format: biochemical, M. tuberculosis
- reportedConditions: 10μM final concentration, pre-incubation protocol, screen 3; read-out: Adenylated Mtb GS (% inhibition) Screen 3
Ranges used to classify inhibition at 10 µM: bin 0 (below 40%), bin 1 (40% to below 60%), bin 2 (60% or more)

// query Could you place Cc1nc(N)cc(C[n+]2csc(CCOP(=O)(O)O)c2C)n1 in its proper category? Many thanks.
// result bin 1

New cases:
// query Would you mind sorting O=C(O)c1ccncc1 into the appropriate category?
// result bin 0

// query Bin? Nc1nc(N)c(NC(=O)c2ccccc2)c(O)n1
// result bin 1

// query # bin label for OCCNc1cc(N2CCCC2)ncn1
// result bin 1

// query Into which category would you place Cc1cccc(C)c1Nc1c(C(C)C)nc2ccccn12 ?
// result bin 2

// query Classify this compound: O=C1NC(C(=O)O)=C(C(=O)O)C(c2ccc([N+](=O)[O-])cc2)N1 (stereo not drawn)
// result bin 0

// query Where would Nc1nc(O)c2ccccc2n1 land among the classes by reported inhibition at 10 µM?
// result bin 0

// query Category of CP(=O)(O)CC[C@H](N)C(=O)O [PhosT, phosphinotricin, reference compound] :
// result bin 2

// query // return the class label for O=NN(Cc1ccccc1)c1cc(N2CCCC2)ncn1
// result bin 0

// query Dear colleague, I would appreciate it if you could identify the bin for c1ccc(CNc2cc(N3CCCC3)ncn2)cc1 and reply at your convenience.
// result bin 1

// query Lab note: sort COc1ccc(-c2nc3ccccn3c2Nc2c(C)cccc2C)cc1OC into the matching inhibition at 10 µM band.
// result bin 2

---

- testedOn: adenylylated MtbGS (Mycobacterium tuberculosis, UniProt P9WN39)
- Construct: made in house; host or cells: E. coli YMC11E(DE3) with pTBSK and pTBglnE
- assayProcedure: biochemical
- Format: biochemical, M. tuberculosis
- reportedConditions: 10μM final concentration, pre-incubation protocol, average over the 4 screens; read-out: Adenylated Mtb GS (% inhibition) AVG
# if value of inhibition at 10 µM reaches 40%, tag 1.0; if it stays below, tag 0.0

Examples from the recorded data:
// query Record NC(CCS(=O)(=O)O)C(=O)O (centres unmarked) [Compound 5] ; criterion: inhibition at 10 µM no lower than 40%. Met?
// result 0.0

// query Given the entry COc1ccc(-c2nc3ccccn3c2Nc2c(C)cccc2C)cc1OC [Compound 10059] , answer whether its inhibition at 10 µM meets or surpasses 40%.
// result 1.0

// query hey, is inhibition at 10 µM for this one >= 40%? Nc1nc(O)c2ccccc2n1 [Compound 12004]
// result 0.0

More entries:
// query Decide: inhibition at 10 µM of CP(=O)(O)CC[C@H](N)C(=O)O [PhosT, phosphinotricin, reference compound] >= 40%?
// result 1.0

---

- testedOn: deadenylylated MtbGS (Mycobacterium tuberculosis)
- Construct: made in house; host or cells: E. coli YMC11E with pTBSK
- Sequence (P9WN39 2-478 limits assumed): as above
- assayProcedure: biochemical
- Design: species or system M. tuberculosis
- reportedConditions: 10μM final concentration, pre-incubation protocol, average over the 4 screens; read-out: Deadenylated Mtb GS (% inhibition) AVG
metricName: inhibition at 10 µM (%)
Could you give me the number in %? Just the number is fine.

// query For the molecule CP(=O)(O)CC[C@H](N)C(=O)O [PhosT, phosphinotricin, reference compound] , give its measured inhibition at 10 µM value.
// result 100

// query Look up and report measured inhibition at 10 µM for this entry: O=NN(Cc1ccccc1)c1cc(N2CCCC2)ncn1 [Compound 5045]
// result 48

// query Return the recorded inhibition at 10 µM value; entry: O=C1NC(C(=O)O)=C(C(=O)O)C(c2ccc([N+](=O)[O-])cc2)N1 (stereo not drawn) [Compound 5012]
// result 15

// query Supply reported inhibition at 10 µM belonging to this molecule: OCCNc1cc(N2CCCC2)ncn1 [Compound 5024]
// result 47

// query Supply inhibition at 10 µM value. Item: Nc1nc(N)c(NC(=O)c2ccccc2)c(O)n1 [Compound 5009]
// result 47

// query Find the measured inhibition at 10 µM of COc1ccc(-c2nc3ccccn3c2Nc2c(C)cccc2C)cc1OC [Compound 10059] and report it.
// result 44
